FYI, the data here is from ChEMBL document CHEMBL2176897.

// reported pIC50 per item
# System: SK-OV-3
# experiment: Cytotoxicity against human SKOV3 cells after 72 hrs by coulter counter analysis
# Format: functional, cell-based
# measurement setup: SK-OV-3, 72 h
// field semantics: pIC50 = negative decimal log of concentration (mol/L)

Some compounds with known pIC50 results, for comparison:
CC(=O)O[C@H]1C(=O)[C@@]2(C)[C@H]([C@H](OC(=O)c3ccccc3)[C@]3(O)C[C@H](OC(=O)[C@H](OC(=O)CCC(=O)NCc4ccc(CN5C(=O)[C@@H]6CNC(=O)[C@H](CC(=O)O)NC(=O)CNC(=O)[C@H](CCCNC(=N)N)NC(=O)C[C@@H]5C(=O)N6)cc4)[C@@H](NC(=O)c4ccccc4)c4ccccc4)C(C)=C1C3(C)C)[C@]1(OC(C)=O)CO[C@@H]1C[C@@H]2O; 8.62
CC(=O)O[C@H]1C(=O)[C@@]2(C)[C@H]([C@H](OC(=O)c3ccccc3)[C@]3(O)C[C@H](OC(=O)[C@H](OC(=O)CCC(=O)NCc4ccc(CN5C(=O)[C@@H]6CC(=O)N[C@@H](CCCNC(=N)N)C(=O)NCC(=O)N[C@@H](CC(=O)O)C(=O)NC[C@@H]5C(=O)N6)cc4)[C@@H](NC(=O)c4ccccc4)c4ccccc4)C(C)=C1C3(C)C)[C@]1(OC(C)=O)CO[C@@H]1C[C@@H]2O; 8.80
CC(=O)O[C@H]1C(=O)[C@@]2(C)[C@H]([C@H](OC(=O)c3ccccc3)[C@]3(O)C[C@H](OC(=O)[C@H](OC(=O)CCC(=O)NCc4ccc(CN5C(=O)[C@H]6CC(=O)N[C@@H](CCCNC(=N)N)C(=O)NCC(=O)N[C@@H](CC(=O)O)C(=O)NC[C@H]5C(=O)N6)cc4)[C@@H](NC(=O)c4ccccc4)c4ccccc4)C(C)=C1C3(C)C)[C@]1(OC(C)=O)CO[C@@H]1C[C@@H]2O; 8.92
CC(=O)O[C@H]1C(=O)[C@@]2(C)[C@H]([C@H](OC(=O)c3ccccc3)[C@]3(O)C[C@H](OC(=O)[C@H](OC(=O)CCC(=O)NCc4ccc(CN5C(=O)[C@H]6CNC(=O)[C@H](CC(=O)O)NC(=O)CNC(=O)[C@H](CCCN=C(N)N)NC(=O)C[C@H]5C(=O)N6)cc4)[C@@H](NC(=O)c4ccccc4)c4ccccc4)C(C)=C1C3(C)C)[C@]1(OC(C)=O)CO[C@@H]1C[C@@H]2O; 8.62

Quick one: pIC50 of CC(=O)O[C@H]1C(=O)[C@@]2(C)[C@H]([C@H](OC(=O)c3ccccc3)[C@]3(O)C[C@H](OC(=O)[C@H](O)[C@@H](NC(=O)c4ccccc4)c4ccccc4)C(C)=C1C3(C)C)[C@]1(OC(C)=O)CO[C@@H]1C[C@@H]2O [PACLITAXEL] ?
8.57

###

# experiment: Half life in human plasma at 10 uM by HPLC analysis
# Assay type: ADME, cell-free
assay metric: half-life at 10 µM (h)
Answer format: numeric, h implied, no suffix.

half-life at 10 µM lookup needed for `CC(=O)O[C@H]1C(=O)[C@@]2(C)[C@H]([C@H](OC(=O)c3ccccc3)[C@]3(O)C[C@H](OC(=O)[C@H](OC(=O)CCC(=O)NCc4ccc(CN5C(=O)[C@H]6CC(=O)N[C@@H](CCCNC(=N)N)C(=O)NCC(=O)N[C@@H](CC(=O)O)C(=O)NC[C@H]5C(=O)N6)cc4)[C@@H](NC(=O)c4ccccc4)c4ccccc4)C(C)=C1C3(C)C)[C@]1(OC(C)=O)CO[C@@H]1C[C@@H]2O` , thanks.
2.38
